# experimental-system: Mitogen-activated protein kinase kinase kinase kinase 4 (Homo sapiens);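 also: reported figure is an averaged inhibition value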
# reported-conditions: at 1 µM
Listing of entries alongside the reported inhibition.
Respond with the bare value in %.

Memo: Fc1ccc(-c2nc3n(c2-c2ccncc2)CCS3)cc1 , reported inhibition: 18.3

Input CS(=O)(=O)CCNCc1ccc(-c2ccc3ncnc(Nc4ccc(OCc5ccccc5)c(Br)c4)c3c2)o1 . Output inhibition: 6.29

Per the record, COc1ccc2cc(-c3c(-c4ccncc4)nc(-c4ccc(S(C)(=O)=O)cc4C)n3C)ccc2c1 has inhibition of 14.8

Sure, the documented inhibition for CN(c1ccc(NC(=O)Nc2c(Cl)cccc2Cl)cc1)c1ccnc(Nc2cccc(CS(C)(=O)=O)c2)n1 is 73.4

The measured inhibition associated with CCc1ccc(Oc2nccc(-c3c(-c4ccc(F)cc4)ncn3C3CCNCC3)n2)cc1 reads 11.4

compound Fc1ccc(-c2ncn(C3CCNCC3)c2-c2ccnc(Oc3ccc(Oc4ccccc4)cc3)n2)cc1 , inhibition observed: 7.43

According to the records, this compound COc1cc(C)c(N(C)C(=O)CN(C)C)cc1Nc1nc(Nc2cccc(F)c2C(N)=O)c2cc[nH]c2n1 displays inhibition of 4.77

Lookup result for COC(=O)Nc1nc2ccc(Sc3ccc(NC(=O)Nc4cc(C(F)(F)F)ccc4F)cc3)cc2[nH]1 ; measured inhibition: 7.12

Value of inhibition reported for the compound COc1cc(Nc2ncc3c(C)nc(-c4cccc(Oc5ccccc5)c4)n3n2)cc(OC)c1OC is 5.36

====

# experimental-system: Tyrosine-protein kinase CSK (Homo sapiens);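 also: each value is an averaged inhibition reading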
# reported-conditions: at 1 µM
observation-type: inhibition (%)
# output: bare number, implied unit %

Solved cases below.
compound-structure-string: CN(C)CCCNc1nccc(-c2c(-c3ccc(F)cc3)nn3cc(C(F)(F)F)ccc23)n1
inhibition, %: -0.64
--
compound-structure-string: N#Cc1ccc(Oc2nccc(-c3c(-c4ccc(F)cc4)ncn3C3CCNCC3)n2)cc1
inhibition, %: 0.87
--
compound-structure-string: CCc1ccc(Oc2nccc(-c3c(-c4ccc(F)cc4)ncn3C3CCNCC3)n2)cc1
inhibition, %: 10.3
--
compound-structure-string: C#Cc1cccc(Nc2ncnc3ccc(OCCCCNCCS(C)(=O)=O)cc23)c1
inhibition, %: 8.24

Let's switch to this compound now.
Documented inhibition of O=C(Nc1ccc(Oc2ccc3[nH]c(NC(=O)c4ccccc4)nc3c2)cc1)Nc1cc(C(F)(F)F)ccc1F : 11.7

====

Overview of recorded inhibition for various compounds
# experimental-system: Serine/threonine-protein kinase PAK 5 (Homo sapiens)
# reported-conditions: at 1 µM
# Description: GSK_PKIS: PAK5 mean inhibition at 1 uM [Nanosyn]
Quick reminder: number only, in %, skip the unit.

compound-structure-string: NS(=O)(=O)c1ccc(Nc2cc(-c3ccc(O)c(F)c3)n[nH]2)cc1
numeric-value: -2.39
//
compound-structure-string: O=C(Nc1n[nH]c2cc(-c3cc(F)ccc3F)ccc12)C1CC1
numeric-value: -2.05
//
compound-structure-string: NC(=O)c1cc(-c2ccncc2)cc(-c2ccccc2)c1N
numeric-value: 2.18
//
compound-structure-string: COc1cc(N2CCN(C(C)C)CC2)ccc1Nc1nc(Nc2ccc(F)cc2C(=O)NC[C@@H](O)CO)c2cc[nH]c2n1
numeric-value: -2.48
//
compound-structure-string: O=C1NC(=O)C(c2cccc(Cl)c2)=C1Nc1ccc(Cl)c(C(=O)O)c1
numeric-value: 0.5
//
compound-structure-string: Cc1nnc(-c2ccc(C)c(-c3ccc(C(=O)NCc4ccc(Cl)cc4)cc3)c2)o1
numeric-value: -2.54

In plain terms, NS(=O)(=O)c1ccc(N/N=C2\C(=O)Nc3ccc(-c4cnco4)cc32)cc1 has a documented inhibition of -0.09

// recorded inhibition for O=C1Nc2ccccc2/C1=C/Nc1ccc(-n2cncn2)cc1 : -2.52

Lookup result for NC(=O)Cc1ccccc1Oc1nccc(-c2c(-c3ccc(F)cc3)ncn2C2CCNCC2)n1 ; measured inhibition: -2.81

Looking up COc1ccc(-c2ccc3c(NC(=O)C4CC4)n[nH]c3n2)cc1 , I found its inhibition recorded as -4.91

GET /value?item= COc1ccc2ncn(-c3cc(O[C@H](C)c4ccccc4Cl)c(C(N)=O)s3)c2c1 &field=inhibition returns 3.63

Notebook: CNC(=O)c1cncc(/C=C/c2c(C)cccc2C)c1 , inhibition read as 2.41

Given item NC(=O)c1ccc(Oc2nccc(-c3c(-c4ccc(F)cc4)ncn3C3CCNCC3)n2)cc1 , the value recorded as its inhibition is 0.82

get_value(item= CCc1cccc(CC)c1/C=C/c1cncc(C(=O)NC)c1 , readout=inhibition) returns -1.06

Sample CN(c1ccc(NC(=O)Nc2c(Cl)cccc2Cl)cc1)c1ccnc(Nc2cccc(CS(C)(=O)=O)c2)n1 ; inhibition observed: 11.9

For reference, reported inhibition for O=C1Nc2ccc(I)cc2C1=Cc1cc(Br)c(O)c(Br)c1 stands at 10.2

Lookup result for NS(=O)(=O)c1ccc(N/N=C2\C(=O)Nc3ccc(C(=O)NCCCn4ccnc4)cc32)cc1 ; measured inhibition: -1.29

So for O=C(Nc1n[nH]c2nc(-c3ccco3)ccc12)C1CC1 , the logged inhibition turned out to be 3.74

Per the record, CCS(=O)(=O)c1ccc(OC)c(Nc2ncc(-c3ccccc3Cl)o2)c1 has inhibition of 17.3

Looking up Fc1ccc(-c2ncn(C3CCNCC3)c2-c2ccnc(Oc3ccc4c(c3)OCO4)n2)cc1 , I found its inhibition recorded as 2.03

Lab note: measured inhibition of CCC(=O)Nc1ccc(C)c(-c2ccc(C(=O)NCC3CC3)cc2)c1 was -2.96
